Assay: NCI Yeast Anticancer Drug Screen. Data for the mlh1 rad18 strain (AID 175)
Conditions: S. cerevisiae mlh1 rad18 strain growth inhibition; at 50.0 µM; stronger effect = higher value
Compounds without any hit were thinned out: in the full panel of roughly 79,000, 15% have a hit.
quantity.kind: growth inhibition (%)
Write the answer as a number in %, unit excluded.

# get_value(readout='growth inhibition', item= "O=[N+]([O-])C1(CO)COC2(OC1)c1ccccc1-c1ccccc12" )
-0.25

Record: CC1CC(C2=CC=CCS2)=Nc2ccccc2S1 (configuration not stated)
18.8

// same read-out, input: "COC(=O)c1nc(N)nc(C(=O)OC)c1C(=O)c1cc(Cl)ccc1Cl"
-5.65

How about "COc1ccc(-c2cc(=O)c3cc(C)c(C)c(C(=O)O)c3o2)cc1" ?
0.75

Repeat with "Fc1ccc2nc3ccccc3c(SCCNCCSc3c4ccccc4nc4ccc(F)cc34)c2c1"
35.2

Could you do the same for "CCS(=O)O" , please?
-8.9

Continuing:
What value of measured growth inhibition is listed for O=C1OC2(C(F)(F)F)Oc3ccccc3CN2C12CCCCC2 (configuration not stated) ?
13.2

How about this compound: O=C(O)C1OC1(c1ccccc1Cl)c1ccccc1Cl (configuration not stated)
9.55

---

Quick reference for growth inhibition among some molecules
Assay: NCI Yeast Anticancer Drug Screen. Data for the sgs1 mgt1 strain (AID 161);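 further: 0% = growth of cultures given vehicle only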
Details: S. cerevisiae sgs1 mgt1 strain, at 50.0 µM, stronger effect = higher value
This is part of a sample that, as a whole, favours compounds with a hit. Of some 79,000 tested, about 15% had one in any assay.
Please state the figure in %; there is no need to write the unit.

# count of solved cases: 10
So what does the record say about growth inhibition for "O=C(N/N=C/C=C/c1ccccc1)c1ccccc1O" ?
56.2

Again, but for "NC1=C(O)c2cccc3cccc(c23)C1=O"
11.8

And then "O=c1ccc2cc(Br)ccc2o1" , what is it?
16.6

Another: "O=c1c(SCc2ccc(Cl)c(Cl)c2)c(SCc2ccc(Cl)c(Cl)c2)cnn1-c1ccccc1"
-6.05

Another: CC1CCC(=O)NCCCCC(=O)N1 (stereo unspecified)
25.3

How about "CCOC(=O)C1(C(=O)OCC)CCCN1C(=O)[C@H](CNC(=O)OC(C)(C)C)NC(=O)OCc1ccccc1" ?
-10.9

How about "CC(=O)O[C@H]1C[C@H]2[C@@H](OC(C)=O)/C=C3\C[C@](C)(C(=O)[C@H](O)C(=C1C)C2(C)C)[C@@H](O)C[C@@H]3OC(=O)[C@H](O)[C@H](c1ccccc1)N(C)C" ?
-8.6

Follow-up entry: NC1=NN(O)C2=CC(Br)C=CC2=N1 (stereo unspecified)
11.6

Follow-up entry: "O=c1c2c(ccc3ccccc32)oc2ccc3ccccc3c12"
-5.45

And what about the molecule N=C1C(O)C2(I)c3ccccc3N3C(=N)C(O)C4c5ccccc5N1C4C32 (stereo unspecified) ?
-38.5

Consider the additional molecule presented here.
Fill blank: measured growth inhibition of the molecule "O=c1[nH]cc(COCC(F)(F)C(F)(F)C(F)(F)C(F)F)c(=O)[nH]1" is ____.
-3.7

---

Known growth inhibition of a selection of compounds
Test: NCI Yeast Anticancer Drug Screen. Data for the mec2-1 strain (AID 157)
Settings: S. cerevisiae mec2-1 strain, at 50.0 µM, stronger effect = higher value
The panel holds about 79,000 compounds, 15% with a hit somewhere; the sample as a whole holds those more often.
Only the number, expressed in %, is required.

Return reported growth inhibition; argument: CCCCCCCCC(CO)CCCCCC (centres undefined)
-1.05

Next up: "O=C1Nc2ccccc2C1=Nc1cccc2ncccc12"
-7.75

Okay, and "O=C1C(Cl)=C(NC(CO)(CO)CO)C(=O)c2ccccc21" ?
16.6

Same for COc1ccc(OC)c(/C=C/C2=C(C)C(=O)CC(c3cc(OC)ccc3OC)C2C)c1 (centres undefined)
12.3

Would you mind doing "O=C(/C=C\c1ccccc1)OCc1ccccc1CN1CCCCC1" as well?
11.7

***
State the recorded growth inhibition for this entry: "N=c1nccnn1O"
13.2

Same for CCCCC(CC)COC(=O)COc1ccc(C(C)c2ccc(OCC(=O)OCC(CC)CCCC)cc2)cc1 (centres undefined)
10.5

Another compound to check: "O=C(OCCN=C1c2ccccc2CCc2ccccc21)c1ccccc1"
-6.45

// query: "C=NNC(=O)c1ccncc1"
-6.1

Also check "CCc1ccccc1NC(=S)NC1CCCCC1"
-8.85

What do you have for CCCCCCCCCCCCC(F)C(=O)OCC1OC(n2cc(C)c(=O)[nH]c2=O)CC1N=[N+]=[N-] (centres undefined) ?
-15.7

Here is the next compound: CCCOC1OC(CS(=O)(=O)O)C(OC(C)=O)C(OC(C)=O)C1OC(C)=O (centres undefined)
3.1

Likewise for CC12CCC3C(CCC4CCCCC43C)C1CC/C2=N\O (centres undefined) ?
45.6

Ok, now "C/C=C(/c1ccccc1)c1ccc(N(C)C)cc1"
0.85

Proceed to "COc1ccc(CCn2cnc3ccccc32)cc1"
-34.6

Repeat for the following compound: "O=C1CCc2ccccc21"
-10.5

Likewise for COc1nc(NC2OC(CO)C(O)C(O)C2O)c(C=O)c(=O)n1C (centres undefined) ?
-6.55

What about this compound? O=C(c1ccccc1)C1N=NN(Cc2ccccc2[N+](=O)[O-])C1C(=O)c1ccccc1 (centres undefined)
-30.9

Next compound up: "c1ccc(-c2cnc(C3CCCCC3)o2)cc1"
-14.1

Entry to check: c1ccc(CN[C@]23C4C5CC6C7C5C2C7[C@@](NCc2ccccc2)(C64)N3Cc2ccccc2)cc1 (some centres undefined)
-1.05

Item: "COc1ccc(CCn2nccc2C)cc1"
-4

Follow-up entry: "C/C=C(\C)c1cc(=O)c2c(C)cc3c(c2o1)C(=O)c1c(OC)cccc1C3=O"
-14.8

Also need "CC1(C)COC(c2cc(Br)ccc2Br)=N1" , thanks.
-16.2

Also need "O=Cc1cc(Cl)cc(Cl)c1" , thanks.
-18.1

Please answer likewise for "CN(C)c1ccc(/C=N/NC(=S)Nc2cccc3cccnc23)cc1"
-3.05

Then what about the compound "Cc1nc2ccccc2nc1CC(=O)c1ccccc1" ?
15.3

Also check "O=C(C[N+](=O)[O-])OCc1ccccc1"
22.8
